Biological target: Bone morphogenetic protein 1 (Homo sapiens)
Sequence (P13497 whole entry): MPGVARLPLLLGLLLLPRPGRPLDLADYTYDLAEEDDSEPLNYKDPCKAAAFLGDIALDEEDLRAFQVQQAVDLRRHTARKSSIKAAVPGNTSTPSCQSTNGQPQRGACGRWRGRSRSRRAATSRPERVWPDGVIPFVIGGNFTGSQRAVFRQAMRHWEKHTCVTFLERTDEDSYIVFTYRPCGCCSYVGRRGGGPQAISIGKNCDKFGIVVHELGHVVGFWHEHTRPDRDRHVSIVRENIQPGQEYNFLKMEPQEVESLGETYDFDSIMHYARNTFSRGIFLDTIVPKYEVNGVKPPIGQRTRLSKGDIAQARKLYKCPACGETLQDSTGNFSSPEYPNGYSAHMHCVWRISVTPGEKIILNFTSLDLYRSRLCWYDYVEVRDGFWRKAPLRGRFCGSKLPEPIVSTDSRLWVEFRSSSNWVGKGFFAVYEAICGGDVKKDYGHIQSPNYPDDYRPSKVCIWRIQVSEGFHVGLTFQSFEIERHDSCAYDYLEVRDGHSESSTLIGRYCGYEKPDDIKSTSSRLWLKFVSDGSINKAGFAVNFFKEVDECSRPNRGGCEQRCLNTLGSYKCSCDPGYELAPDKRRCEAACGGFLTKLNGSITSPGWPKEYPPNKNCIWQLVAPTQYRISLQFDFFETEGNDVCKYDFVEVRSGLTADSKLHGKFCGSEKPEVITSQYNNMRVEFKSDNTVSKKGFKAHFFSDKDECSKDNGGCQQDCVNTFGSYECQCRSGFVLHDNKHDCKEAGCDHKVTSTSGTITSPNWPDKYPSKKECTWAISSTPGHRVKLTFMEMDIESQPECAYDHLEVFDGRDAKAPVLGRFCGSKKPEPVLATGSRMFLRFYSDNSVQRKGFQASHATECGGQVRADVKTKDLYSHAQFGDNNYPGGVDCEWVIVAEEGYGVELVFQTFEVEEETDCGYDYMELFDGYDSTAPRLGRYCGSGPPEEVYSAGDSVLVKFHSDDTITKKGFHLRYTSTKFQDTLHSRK
Experiment: The compound was evaluated for its inhibitory effect against Procollagen C-terminal proteinase
Overview of reported IC50 across a group of compounds:
Output spec: scalar in nM, unitless text.

In [3]: df
Out[3]:
                               entry_smiles  measure_name  units_symbol  endpoint_result
0  COc1ccc(S(=O)(=O)N[C@H](CCCNC(=O)NC2CCCCC2)C(=O)NO)cc1          IC50            nM              230

Turning now to a further compound:
Fill in reported IC50 for this entry: `COc1ccc(S(=O)(=O)N[C@H](CCCNC(=O)N[C@H](C)c2ccccc2)C(=O)NO)cc1`
110

The origin of these recorded values is ChEMBL document CHEMBL1133899.
